src = paper PMC4770229

Tested Target: T1, NF90dsRBDs (mouse, UniProt Q9Z1X4 380-592)
T1 sequence: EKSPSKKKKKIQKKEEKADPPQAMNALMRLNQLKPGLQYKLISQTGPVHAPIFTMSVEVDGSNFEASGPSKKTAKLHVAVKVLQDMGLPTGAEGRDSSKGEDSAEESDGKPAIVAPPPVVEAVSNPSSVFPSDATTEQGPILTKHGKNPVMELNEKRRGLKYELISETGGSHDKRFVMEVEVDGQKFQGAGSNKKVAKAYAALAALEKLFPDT
Protocol: fluorescence anisotropy; EMSA: 20 mM HEPES pH 7.5, 150 mM K acetate, on ice, 1 uM RNA (competition 0.5 uM complex); FA: same buffer, 23.5 C, 250 nM RNA; ITC: 20 mM HEPES pH 7.5, 50 mM NaCl, 25 C
Conditions Used: protein: recombinant; tags: GST removed by TEV; label: 5' Cy3 on strand 1; blunt
Assay Endpoint: Kd (nM)
Value expressed in nM; do not type the unit.

Query: Kd lookup needed for 21mer dsRNA, Cy3 (dsRNA) RNA 1: UCACUUUCAUAAUGCUGGAUA RNA 2: UAUCCAGCAUUAUGAAAGUGA , thanks.
Response: 433
